B1: HEEH_KT_rd6_3546 (parent)
chain: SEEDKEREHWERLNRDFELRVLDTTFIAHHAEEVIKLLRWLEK

# Variants of: B1
# assay notes: folding stability dG (cDNA display proteolysis); higher = more stable
# cond: PBS, room temperature
recorded endpoint: folding stability dG (kcal/mol)
API: value field is a number in kcal/mol; no unit string.

* V21I | 1.84
* E33W | 2.45
* D16E | 1.43

Q) Which folding stability dG value belongs to K43C ?
A) 1.57

Q) Which folding stability dG value belongs to T25Y ?
A) 1.65

Q) Which folding stability dG value belongs to K43Y ?
A) 1.8

Q) Which folding stability dG value belongs to E3L ?
A) 1.61

Q) Which folding stability dG value belongs to E6H ?
A) 1.43

Q) Which folding stability dG value belongs to E42W ?
A) 2.59

Q) Which folding stability dG value belongs to A28Q ?
A) 0.99

Q) Which folding stability dG value belongs to K36Y ?
A) 1.82

Q) Which folding stability dG value belongs to V21A ?
A) 1.33

Q) Which folding stability dG value belongs to V34T ?
A) 0.62
